Entry source: paper PMC9502404

test system: A549 cells; assay: MTT cell viability and proliferation assay; assay type: cell-based, human; settings: Smp24 1.25-20 μM, 12, 24 and 48 h tested, time of the IC50 not stated, triplicate, consistent with ref 10
pIC50: −log10 of the molar value. Where no end group is shown, it is not given here.
Recorded endpoint: pIC50

                      item_sequence  value_measured
0  IWSFLIKAATKLLPSLFGGGKKDS [Smp24]           ~5.39
